The following molecules were reported with IC50 values on 4-hydroxyphenylpyruvate dioxygenase (Sus scrofa) in different studies.
Sequence (Q02110 whole entry): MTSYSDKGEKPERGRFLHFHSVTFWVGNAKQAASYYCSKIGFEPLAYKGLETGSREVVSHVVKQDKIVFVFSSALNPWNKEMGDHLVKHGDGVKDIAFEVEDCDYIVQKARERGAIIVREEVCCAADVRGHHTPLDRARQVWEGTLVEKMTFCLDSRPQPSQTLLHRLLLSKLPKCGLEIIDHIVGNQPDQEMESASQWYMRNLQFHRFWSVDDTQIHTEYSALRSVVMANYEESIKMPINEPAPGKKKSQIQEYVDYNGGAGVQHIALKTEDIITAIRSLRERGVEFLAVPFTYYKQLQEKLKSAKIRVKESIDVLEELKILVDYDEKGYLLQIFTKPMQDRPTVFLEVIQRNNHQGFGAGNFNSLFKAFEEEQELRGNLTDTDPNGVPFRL
Just the number plus its unit, please.

Worked examples, 6 molecules total:
Entry COC(=O)C1OC1(C)c1ccccc1 (configuration not stated) ; IC50 = 120 µM

Per the record, O=C1CCCC(=O)N1C(=O)c1ccccc1[N+](=O)[O-] has IC50 of 60 µM

Per the records, this molecule ( O=C1C=C(OC(=O)C2CC2)CCC1 ) has IC50 equal to 0.03 µM

Looking up CC(C)C(=O)OC1=CC(=O)CCC1 , I found its IC50 recorded as 4.16 µM

get_value(item= O=C1CCCC(=O)C1=C(NO)c1ccccc1[N+](=O)[O-] , readout=IC50) returns 50 µM

Note to self: IC50 recorded for O=C1CCCC(O)=C1Cc1ccccc1[N+](=O)[O-] was 126 µM

Now turn to the next molecule.
For reference, reported IC50 for COC1=C(C(=O)c2ccccc2[N+](=O)[O-])C(=O)CCC1 stands at 52 µM
